# system.tested: GSK 3α enzyme isoform (Homo sapiens, UniProt P49840)
# Sequence (P49840 whole entry, canonical isoform): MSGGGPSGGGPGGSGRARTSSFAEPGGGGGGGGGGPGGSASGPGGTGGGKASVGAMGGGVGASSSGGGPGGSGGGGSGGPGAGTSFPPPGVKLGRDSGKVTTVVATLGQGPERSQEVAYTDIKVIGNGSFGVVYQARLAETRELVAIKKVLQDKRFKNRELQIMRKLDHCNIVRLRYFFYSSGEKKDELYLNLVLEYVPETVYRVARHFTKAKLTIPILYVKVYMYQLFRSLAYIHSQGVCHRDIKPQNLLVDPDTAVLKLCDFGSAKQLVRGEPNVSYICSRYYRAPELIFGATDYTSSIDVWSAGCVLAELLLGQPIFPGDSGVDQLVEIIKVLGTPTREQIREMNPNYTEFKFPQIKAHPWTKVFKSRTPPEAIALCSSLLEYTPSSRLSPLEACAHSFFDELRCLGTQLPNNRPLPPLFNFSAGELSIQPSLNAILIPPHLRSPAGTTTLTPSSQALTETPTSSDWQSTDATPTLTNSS
# test.method.notes: GSK 3α enzyme inhibition (Z-LYTE FRET)
# settings: Table 2A; read-out: IC50 Values for Enzyme Inhibition GSK3α
pIC50: −log10 of the molar value.
endpoint.label: pIC50

For orientation, consider the following solved cases.
# compound, reported.measurement
rows = [
    ("Cc1ccc(-n2nc(C(C)(C)C)cc2NC(=O)Nc2ccc(OCc3ccnc(Nc4cncc(C5CCCC5)n4)c3)c3ccccc23)cc1", 5.38),
    ("COc1ccc(-n2nc(C(C)(C)C)cc2NC(=O)Nc2ccc(OCc3ccnc(Nc4cnc(CO)cn4)c3)c3ccccc23)cc1", 6.20),
    ("CC(C)(C)c1cc(NC(=O)Nc2ccc(OCc3ccnc(Nc4cnccn4)c3)c3ccccc23)n(-c2cccc(Cl)c2)n1", 5.15),
    ("Cc1ccc(-n2nc(C(C)(C)C)cc2NC(=O)Nc2ccc(OCc3ccnc(Nc4cnc(CC(N)=O)cn4)c3)c3ccccc23)cc1", 5.83),
    ("Cc1ccc(-n2nc(C(C)(C)C)cc2NC(=O)Nc2ccc(OCc3ccnc(Nc4cncc(N(C)C)n4)c3)c3ccccc23)cc1", 5.47),
]

(P) COc1ccc(-n2nc(C(C)(C)C)cc2NC(=O)Nc2ccc(OCc3ccnc(Nc4cnccn4)c3)c3ccccc23)cc1Cl
(Q) Cc1ccc(-n2nc(C(C)(C)C)cc2NC(=O)Nc2ccc(OCc3ccnc(Nc4cnc(CO)cn4)c3)c3ccccc23)s1
(R) Cc1ccc(-n2nc(C(C)(C)C)cc2NC(=O)Nc2ccc(OCc3ccnc(Nc4cncc(C5CC5)n4)c3)c3ccccc23)cc1
Enquiry: Hey, quick one: sort these by pIC50, largest value first please. Return the labels ranked in the requested order, please.
Return: Q, R, P

====

# system.tested: p38MAPKγ (MAPK12) (Homo sapiens, UniProt P53778)
# Construct: purchased Life Technologies
# Sequence (P53778 whole entry): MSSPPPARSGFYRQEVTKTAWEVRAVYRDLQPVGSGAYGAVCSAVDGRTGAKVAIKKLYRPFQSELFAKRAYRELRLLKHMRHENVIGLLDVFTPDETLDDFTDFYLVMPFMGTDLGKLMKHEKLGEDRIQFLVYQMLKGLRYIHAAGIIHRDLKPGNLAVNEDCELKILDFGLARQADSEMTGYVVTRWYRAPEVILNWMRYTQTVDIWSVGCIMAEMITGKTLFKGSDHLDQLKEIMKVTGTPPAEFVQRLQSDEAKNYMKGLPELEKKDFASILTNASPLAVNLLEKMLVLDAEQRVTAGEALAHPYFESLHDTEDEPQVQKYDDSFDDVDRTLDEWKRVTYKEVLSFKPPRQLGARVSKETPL
# test.method.notes: p38 MAPKγ enzyme inhibition (Z-LYTE FRET)
# Format: biochemical
# settings: Table 2B, unit inferred; read-out: p38 MAPKγ (Enzyme Profile)
# Procedure: The enzyme inhibitory activities of compounds disclosed herein were determined by FRET using synthetic peptides labelled with both donor and acceptor fluorophores (Z-LYTE, Life Technologies, Paisley, UK). The inhibitory activities of compounds of the invention against p38MAPKγ (MAPK12: Life Technologies), were evaluated by determining the level of activation/phosphorylation of the target peptide. […]
endpoint.label: IC50 (nM)

// below: answered compounds
# smiles.data, reported.measurement
measured = [
    ("Cc1ccc(-n2nc(C(C)(C)C)cc2NC(=O)Nc2ccc(OCc3ccnc(Nc4cnc(C(=O)NCCN5CC[C@@H](F)C5)cn4)c3)c3ccccc23)cc1", 202),
    ("Cc1ccc(-n2nc(C(C)(C)C)cc2NC(=O)Nc2ccc(OCc3ccnc(Nc4cnc(C(=O)N5C[C@@H](C)O[C@@H](C)C5)cn4)c3)c3ccccc23)cc1", 1930),
]

(I) Cc1ccc(-n2nc(C(C)(C)C)cc2NC(=O)Nc2ccc(OCc3ccnc(Nc4cncc(OCC(C)C)n4)c3)c3ccccc23)cc1
(II) COCc1cccc(-n2nc(C(C)(C)C)cc2NC(=O)Nc2ccc(OCc3ccnc(Nc4cnc(C(=O)N5CCN(C)CC5)cn4)c3)c3ccccc23)c1
Enquiry: Which value of IC50 is greater, the one for I or the one for II ? Kindly state the label of the option you pick.
Return: I

(A) Cc1ccc(-n2nc(C(C)(C)C)cc2NC(=O)Nc2ccc(OCc3ccnc(Nc4cnc(C(=O)N5CC[C@@H](O)C5)cn4)c3)c3ccccc23)cc1
(B) Cc1ccc(-n2nc(C(C)(C)C)cc2NC(=O)Nc2ccc(OCc3ccnc(Nc4cnc(C(=O)NCCN5CCC(F)CC5)cn4)c3)c3ccccc23)cc1
(C) Cc1cc(F)cc(-n2nc(C(C)(C)C)cc2NC(=O)Nc2ccc(OCc3ccnc(Nc4cnccn4)c3)c3ccccc23)c1
(D) CC(C)(C)c1cc(NC(=O)Nc2ccc(OCc3ccnc(Nc4cnc(C(=O)N5CCCC5)cn4)c3)c3ccccc23)n(-c2cccc(F)c2)n1
Enquiry: Sort these compounds on IC50 so the largest reading comes first. Put the labels in the order asked and list them.
Return: D, B, C, A
(D: 1130 nM, B: 269 nM, C: 64 nM, A: 37 nM)

(1) COCc1cccc(-n2nc(C(C)(C)C)cc2NC(=O)Nc2ccc(OCc3ccnc(Nc4cnc(C(=O)N5CCCC5)cn4)c3)c3ccccc23)c1
(2) Cc1ccc(-n2nc(C(C)(C)C)cc2NC(=O)Nc2ccc(OCc3ccnc(Nc4cnc(C(=O)NCCC5CCN(C)CC5)cn4)c3)c3ccccc23)cc1
Enquiry: Which shows the larger IC50 value: 1 or 2 ? Write down the label of the entry you select.
Return: 1
(1: 272 nM, 2: 51 nM)

====

# system.tested: GSK 3α enzyme isoform (Homo sapiens, UniProt P49840)
# test.method.notes: GSK 3α enzyme inhibition (Z-LYTE FRET)
# settings: Table 2A; read-out: IC50 Values for Enzyme Inhibition GSK3α
# Experimental: The enzyme inhibitory activities of compounds disclosed herein were determined by FRET using synthetic peptides labelled with both donor and acceptor fluorophores (Z-LYTE, Life Technologies, Paisley, UK). The GSK3a protein (500 ng/mL, 2.5 μL) was incubated with the test compound (2.5 μL at either 40 μg/mL, 12 μg/mL, 4 μg/mL, 1.2 μg/mL, 0.4 μg/mL, 0.12 μg/mL, 0.04 μg/mL, 0.012 μg/mL, 0.004 μg/mL or 0.0012 μg/mL) for 2 h at RT. […]
endpoint.label: IC50 (µM)

Take a look at these entries with their results.
# smiles.data, unit.string, IC50
data = [
    ("CNC(=O)Cc1cnc(Nc2cc(COc3ccc(NC(=O)Nc4cc(C(C)(C)C)nn4-c4ccc(C)cc4)c4ccccc34)ccn2)cn1", "µM", 5.96),
    ("Cc1ccc(-n2nc(C(C)(C)C)cc2NC(=O)Nc2ccc(OCc3ccnc(Nc4cnc(CC(=O)N(C)C)cn4)c3)c3ccccc23)cc1", "µM", 0.207),
    ("Cc1ccc(-n2nc(C(C)(C)C)cc2NC(=O)Nc2ccc(OCc3ccnc(Nc4cncc(C5CC5)n4)c3)c3ccccc23)s1", "µM", 1.13),
    ("Cc1ccc(-n2nc(C(C)(C)C)cc2NC(=O)Nc2ccc(OCc3ccnc(Nc4cnc(C(=O)N(C)C)cn4)c3)c3ccccc23)cc1", "µM", 3.32),
    ("Cc1ccc(-n2nc(C(C)(C)C)cc2NC(=O)Nc2ccc(OCc3ccnc(Nc4cncc(CO)n4)c3)c3ccccc23)cc1", "µM", 1.58),
]

(a) COc1cncc(Nc2cc(COc3ccc(NC(=O)Nc4cc(C(C)(C)C)nn4-c4ccc(C)cc4)c4ccccc34)ccn2)n1
(b) Cc1ccc(-n2nc(C(C)(C)C)cc2NC(=O)Nc2ccc(OCc3ccnc(Nc4cnc(CN)cn4)c3)c3ccccc23)cc1
Enquiry: Between the entries labelled a and b , which has a larger IC50 value on record? Mark your answer with the label of the selected entry.
Return: a

====

# system.tested: p38MAPKγ (MAPK12) (Homo sapiens)
# Construct: purchased Life Technologies
# test.method.notes: p38 MAPKγ enzyme inhibition (Z-LYTE FRET)
# Format: biochemical
# settings: Table 2B, unit inferred; read-out: p38 MAPKγ (Enzyme Profile)
endpoint.label: IC50 (nM)

Example entries begin here.
# smiles.data, endpoint.label, reported.measurement
data = [
    ("CCN1CCN(C(=O)c2cnc(Nc3cc(COc4ccc(NC(=O)Nc5cc(C(C)(C)C)nn5-c5cccc(COC)c5)c5ccccc45)ccn3)cn2)CC1", "IC50", 35),
    ("Cc1ccc(-n2nc(C(C)(C)C)cc2NC(=O)Nc2ccc(OCc3ccnc(Nc4cnc(C(=O)N[C@H]5CCCN(C)C5)cn4)c3)c3ccccc23)cc1", "IC50", 233),
    ("Cc1cc(-n2nc(C(C)(C)C)cc2NC(=O)Nc2ccc(OCc3ccnc(Nc4cncc(N(C)C)n4)c3)c3ccccc23)cs1", "IC50", 277),
    ("COCCc1cccc(-n2nc(C(C)(C)C)cc2NC(=O)Nc2ccc(OCc3ccnc(Nc4cnccn4)c3)c3ccccc23)c1", "IC50", 68),
    ("COCCc1cncc(Nc2cc(COc3ccc(NC(=O)Nc4cc(C(C)(C)C)nn4-c4ccc(C)cc4)c4ccccc34)ccn2)n1", "IC50", 49),
]

(a) Cc1ccc(-n2nc(C(C)(C)C)cc2NC(=O)Nc2ccc(OCc3ccnc(Nc4cnc(C(=O)NCCC(C)(C)O)cn4)c3)c3ccccc23)cc1
(b) COCc1cccc(-n2nc(C(C)(C)C)cc2NC(=O)Nc2ccc(OCc3ccnc(Nc4cnc(C(=O)N5CCC(N(C)C)CC5)cn4)c3)c3ccccc23)c1
Enquiry: I'm curious whether a or b has the smaller IC50 number. Which is it? API: response body contains the label of the selected item.
Return: b

====

# system.tested: p38MAPKγ (MAPK12) (Homo sapiens)
# Construct: purchased Life Technologies
# test.method.notes: p38 MAPKγ enzyme inhibition (Z-LYTE FRET)
# Type: biochemical
# settings: Table 2B, unit inferred; read-out: p38 MAPKγ (Enzyme Profile)
endpoint.label: IC50 (nM)

Known IC50 results, listed for orientation:
# smiles.data, IC50, nM
rows = [
    ("COCCNC(=O)Cc1cncc(Nc2cc(COc3ccc(NC(=O)Nc4cc(C(C)(C)C)nn4-c4ccc(C)cc4)c4ccccc34)ccn2)n1", 54),
    ("COCc1cccc(-n2nc(C(C)(C)C)cc2NC(=O)Nc2ccc(OCc3ccnc(Nc4cnc(CN5CCN(C)CC5)cn4)c3)c3ccccc23)c1", 8.4),
    ("Cc1ccc(-n2nc(C(C)(C)C)cc2NC(=O)Nc2ccc(OCc3ccnc(Nc4cncc(N5CCOCC5)n4)c3)c3ccccc23)cc1", 115),
]

(A) Cc1ccc(-n2nc(C(C)(C)C)cc2NC(=O)Nc2ccc(OCc3ccnc(Nc4cnc(C)c(C)n4)c3)c3ccccc23)cc1F
(B) CCCc1cncc(Nc2cc(COc3ccc(NC(=O)Nc4cc(C(C)(C)C)nn4-c4cccc(OC)c4)c4ccccc34)ccn2)n1
Enquiry: Between A and B , which one has the lower reported IC50 value? Your answer should be the label attached to the chosen record.
Return: B
(B: 579 nM, A: 1140 nM)

(1) COc1cccc(-n2nc(C(C)(C)C)cc2NC(=O)Nc2ccc(OCc3ccnc(Nc4cnc(CO)cn4)c3)c3ccccc23)c1
(2) Cc1ccc(-n2nc(C(C)(C)C)cc2NC(=O)Nc2ccc(OCc3ccnc(Nc4cnc(C(=O)N[C@H]5COC[C@@H]5N5CCOCC5)cn4)c3)c3ccccc23)cc1
(3) COCCN(CCOC)C(=O)c1cnc(Nc2cc(COc3ccc(NC(=O)Nc4cc(C(C)(C)C)nn4-c4ccc(C)cc4)c4ccccc34)ccn2)cn1
(4) Cc1cccc(-n2nc(C(C)(C)C)cc2NC(=O)Nc2ccc(OCc3ccnc(Nc4cncc(C5CC5)n4)c3)c3ccccc23)c1
Enquiry: Kindly order the items shown according to IC50, from the highest value down. Please list the labels in the order you were asked to rank them.
Return: 4, 3, 2, 1
(4: 510 nM, 3: 259 nM, 2: 103 nM, 1: 36 nM)

(P) CCc1cccc(-n2nc(C(C)(C)C)cc2NC(=O)Nc2ccc(OCc3ccnc(Nc4cnccn4)c3)c3ccccc23)c1
(Q) COc1ccc(-n2nc(C(C)(C)C)cc2NC(=O)Nc2ccc(OCc3ccnc(Nc4cnc(CO)cn4)c3)c3ccccc23)cn1
(R) CCc1cncc(Nc2cc(COc3ccc(NC(=O)Nc4cc(C(C)(C)C)nn4-c4ccc(C)c(C)c4)c4ccccc34)ccn2)n1
(S) Cc1cccc(-n2nc(C(C)(C)C)cc2NC(=O)Nc2ccc(OCc3ccnc(Nc4cnc(CO)cn4)c3)c3ccccc23)c1
Enquiry: Kindly order the items shown according to IC50, from the highest value down. Answer by listing the labels in the requested order.
Return: R, P, Q, S

(A) CN(C)Cc1ccc(-n2nc(C(C)(C)C)cc2NC(=O)Nc2ccc(OCc3ccnc(Nc4cnccn4)c3)c3ccccc23)cc1
(B) COC1CCN(C(=O)c2cnc(Nc3cc(COc4ccc(NC(=O)Nc5cc(C(C)(C)C)nn5-c5ccc(C)cc5)c5ccccc45)ccn3)cn2)CC1
(C) Cc1ccc(-n2nc(C(C)(C)C)cc2NC(=O)Nc2ccc(OCc3ccnc(Nc4cnc(C(=O)N5CC[C@H](N(C)C)C5)cn4)c3)c3ccccc23)cc1
(D) CCc1cncc(Nc2cc(COc3ccc(NC(=O)Nc4cc(C(C)(C)C)nn4-c4ccc(COC)cc4)c4ccccc34)ccn2)n1
(E) Cc1ccc(-n2nc(C(C)(C)C)cc2NC(=O)Nc2ccc(OCc3ccnc(Nc4cnc(C(=O)N5CCC(F)(F)CC5)cn4)c3)c3ccccc23)cc1
Enquiry: Order the entries by their reported IC50, beginning at the minimum. Field: ranking. Enter the labels in the order requested.
Return: C, B, D, A, E
(C: 77 nM, B: 262 nM, D: 509 nM, A: 2040 nM, E: 3730 nM)

(1) Cc1cccc(-n2nc(C(C)(C)C)cc2NC(=O)Nc2ccc(OCc3ccnc(Nc4cnc(C)c(C)n4)c3)c3ccccc23)c1
(2) COCC(=O)Nc1cncc(Nc2cc(COc3ccc(NC(=O)Nc4cc(C(C)(C)C)nn4-c4ccc(C)cc4)c4ccccc34)ccn2)n1
Enquiry: Which has the higher IC50, 1 or 2 ? Refer to your chosen entry by its label in the reply.
Return: 2
